For each of the sequences below, state its pKd.
tested on: Fab clone 17 (synthetic), PDB:6B14_1+PDB:6B3K_2; assay: filter binding
Give bare numbers, as −log10 of the molar value.

Okay, here is my list. What is pKd for each of these?
1. GUCCAGUAGGAACACUAUACUACUGGAUAAUCAAAGACAAAUCUGCCCGAAGGGCUUGAGAACAUCGAAACACGAUGCAGAGGUGGCAGCCUCCGGUGGGUUAAAACCCAACGUUCUCAACAAUAGUGA [WT-BLP]
2. GGCGACCAUGGAAACACCAUGGUCGC [WT-RNA HP (WT BL3-6 HP)]
3. UGCGACCAUGGUGAGACCCGCCAUGGUCGC [N9RNA1 HP (AM HP)]

Response:
1: 7.38; 2: 7.68; 3: 8.10

###

test system: Fab clone 14 (synthetic), PDB:6B14_1+PDB:6B3K_2; test: filter binding
Endpoint Label: Kd (nM)
One number for each entry, in nM.

Polymer Sequence	Experimental System	Measured Result
GUCCAGUAGGAACACUAUACUACUGGAUAAUCAAAGACAAAUCUGCCCGAAGGGCUUGAGAACAUCGAAACACGAUGCAGAGGUGGCAGCCUCCGGUGGGUUAAAACCCAACGUUCUCAACAAUAGUGA [WT-BLP]	Fab clone 14 (synthetic), PDB:6B14_1+PDB:6B3K_2	45

Query: Param item = GGCGACCAUGGAAACACCAUGGUCGC [WT-RNA HP (WT BL3-6 HP)] ; retrieve measured Kd.
Response: 58

###

system: Fab BL3-6 (synthetic (humanized Fab4D5 framework phage library)), PDB:6B14_1+PDB:6B3K_2; experiment: hydroxyl-radical footprinting
Endpoint Label: pKd
Numbers only, as −log10 of the molar value.

Query: Param item = UGCGACCAUGGUGAGACCCGCCAUGGUCGC [N9RNA1 HP (AM HP)] ; retrieve measured pKd.
Response: 7.52

###

For each of the sequences below, state its Kd.
test system: Fab clone 11 (synthetic), PDB:6B14_1+PDB:6B3K_2; assay: filter binding
Respond with the figure and its unit, in that order.

Known results for sequences:
Polymer Sequence	Experimental System	Measured Result
GGCGACCAUGGAAACACCAUGGUCGC [WT-RNA HP (WT BL3-6 HP)]	Fab clone 11 (synthetic), PDB:6B14_1+PDB:6B3K_2	13 nM
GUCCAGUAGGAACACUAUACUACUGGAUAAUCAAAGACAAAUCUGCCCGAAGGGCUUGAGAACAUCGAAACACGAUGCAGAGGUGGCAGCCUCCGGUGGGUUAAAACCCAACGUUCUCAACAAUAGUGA [WT-BLP]	Fab clone 11 (synthetic), PDB:6B14_1+PDB:6B3K_2	37 nM

Shift focus to the following entry.
Query: Param item = UGCGACCAUGGUGAGACCCGCCAUGGUCGC [N9RNA1 HP (AM HP)] ; retrieve measured Kd.
Response: 9 nM

###

For each of the sequences below, state its pKd.
tested on: Fab clone 13 (synthetic), PDB:6B14_1+PDB:6B3K_2; experiment: filter binding
Give bare numbers, as −log10 of the molar value.

Known results for sequences:
Polymer Sequence	pKd
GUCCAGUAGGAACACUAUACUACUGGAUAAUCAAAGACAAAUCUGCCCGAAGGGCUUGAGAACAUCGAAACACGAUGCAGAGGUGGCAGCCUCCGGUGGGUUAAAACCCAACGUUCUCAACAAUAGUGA [WT-BLP]	7.44
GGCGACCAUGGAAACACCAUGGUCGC [WT-RNA HP (WT BL3-6 HP)]	7.60

Shift focus to the following entry.
Query: What reported pKd corresponds to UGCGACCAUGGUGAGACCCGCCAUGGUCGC [N9RNA1 HP (AM HP)] on Fab clone 13 (synthetic), PDB:6B14_1+PDB:6B3K_2?
Response: 7.96
